Cited source: paper PMC11966994

experiment: in vitro; conditions: human
endpoint.label: CC50
Hi, when you answer, please include the unit after the number. Thanks!

Query string: Which CC50 value is on record for O=C(O[C@@H]1[C@@H](O)[C@H](Oc2cc(O)c(C(=O)CCc3ccccc3)c(O)c2)O[C@@H]2COC(=O)c3cc(O)c(O)c(O)c3-c3c(cc(O)c(O)c3O)C(=O)O[C@@H]12)c1cc(O)c(O)c(O)c1 ?
Result string: 20.2 µM

* * *

experiment: in vitro; details: African green monkey
endpoint.label: CC50 (µM)
The reply should contain only the number, in µM.

Query string: Which CC50 value is on record for O=C(O[C@@H]1[C@@H](O)[C@H](Oc2cc(O)c(C(=O)CCc3ccccc3)c(O)c2)O[C@@H]2COC(=O)c3cc(O)c(O)c(O)c3-c3c(cc(O)c(O)c3O)C(=O)O[C@@H]12)c1cc(O)c(O)c(O)c1 ?
Result string: 10.6
